// provenance: paper PMC10397247

# TARGET ENTITY: T1, 4H2442-bA
# T1 chain: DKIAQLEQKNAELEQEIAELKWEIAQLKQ
# EXPERIMENT NOTES: two-hybrid library CCNG1;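 further: natural log of median RNA to DNA barcode read ratio; higher means stronger binding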
RECORDED METRIC: interaction score
Answer using only a numeral; do not append any unit.

BINDER: DENAQLKQKIAELEQKNAELEWKIAQLEQ [4H1845-bA]
interaction score: -0.649

Now consider a different binder.
DENAQLEQKNAELEQKIAELEWKIAQLKQ [4H1446-bA] has a reported interaction score of -1.04
